Numbers sourced from a collection of fitness landscapes (doi:10.1126/science.1257360).

B1: PhoQ; a variant is named by its letters at X, in order, P23837 (parent)
chain: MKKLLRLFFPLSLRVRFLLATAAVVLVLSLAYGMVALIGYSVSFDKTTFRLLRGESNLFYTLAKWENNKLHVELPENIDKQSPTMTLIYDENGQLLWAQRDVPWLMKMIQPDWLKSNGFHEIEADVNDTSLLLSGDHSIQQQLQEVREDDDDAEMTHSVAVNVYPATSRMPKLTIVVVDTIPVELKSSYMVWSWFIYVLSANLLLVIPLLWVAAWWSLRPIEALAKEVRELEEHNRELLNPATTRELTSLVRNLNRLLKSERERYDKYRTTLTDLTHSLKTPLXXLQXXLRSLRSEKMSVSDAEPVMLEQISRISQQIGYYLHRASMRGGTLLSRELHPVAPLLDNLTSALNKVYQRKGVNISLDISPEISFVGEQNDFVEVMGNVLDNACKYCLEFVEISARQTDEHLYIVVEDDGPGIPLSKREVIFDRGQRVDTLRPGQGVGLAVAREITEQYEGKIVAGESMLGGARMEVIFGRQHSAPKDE

Variants of: B1
procedureDetails: enrichment ratio after two sorts for PhoP signalling (ratio (wild type AVST 3.29)); higher = more functional
conditions: with PhoP (E. coli)
Over roughly 140,000 sequences, “enrichment ratio after two sorts for PhoP signalling” has its median near 0; the highest 2% begin near 11. The entries come from a sample that favours the highest values as a whole.
I'd appreciate it if you could supply enrichment ratio values for the items below.

-- ask Tell me enrichment ratio reported for ACAE
-- reply 15.5

-- ask State its enrichment ratio for this variant: TGAN
-- reply 2.47

-- ask For the variant GGCY , give its reported enrichment ratio.
-- reply 16.1

-- ask Find the measured enrichment ratio of AHGW and report it.
-- reply ≤ 0.25

-- ask Tell me enrichment ratio reported for MNHG
-- reply ≤ 0.25

-- ask Name the recorded enrichment ratio of the variant listed here: HMSS
-- reply ≤ 0.25

-- ask Provide enrichment ratio value for the following variant: WLSG
-- reply ≤ 0.25

-- ask Tell me measured enrichment ratio for MNWN please.
-- reply 15.4

-- ask # return recorded enrichment ratio for entry SDPC
-- reply ≤ 0.25

-- ask Please look at this variant and report its enrichment ratio: RFQL
-- reply ≤ 0.25

-- ask Please give measured enrichment ratio of the following entry: AKQM
-- reply ≤ 0.25

-- ask Hello, please tell me recorded enrichment ratio for this one: GSFM
-- reply ≤ 0.25

-- ask Fill in reported enrichment ratio for this entry: AGCI
-- reply 14

-- ask Provide measured enrichment ratio value, entry: MNWE
-- reply 17.9

-- ask Name the recorded enrichment ratio of the item AGCL in your answer.
-- reply 15.2

-- ask Answer with reported enrichment ratio of HIQN
-- reply ≤ 0.25

-- ask For the variant YTTH , report enrichment ratio.
-- reply ≤ 0.25

-- ask Answer with reported enrichment ratio of TVNI
-- reply 12.6

-- ask Write down enrichment ratio measured for item TPLF
-- reply ≤ 0.25

-- ask Specify enrichment ratio for AGST and stop.
-- reply 14.8

-- ask Answer with the recorded enrichment ratio of PITH only.
-- reply ≤ 0.25

-- ask Supply enrichment ratio value. Item: MGLT
-- reply 5.67

-- ask Give reported enrichment ratio value for SMST
-- reply 13.1

-- ask // Input: ALLC . Output its enrichment ratio only.
-- reply 1.19

-- ask Report enrichment ratio for IPGP
-- reply ≤ 0.25

-- ask Provide measured enrichment ratio value, entry: SCTY
-- reply 15.6

-- ask Could you please provide reported enrichment ratio for MGCY ? Thanks!
-- reply 29.2

-- ask Please report the measured enrichment ratio for TCTY
-- reply 14.7

-- ask Using known records, supply enrichment ratio for VHGW
-- reply ≤ 0.25

-- ask Kindly indicate its recorded enrichment ratio. Item: ANHW
-- reply ≤ 0.25

-- ask // fetch enrichment ratio given entry RGST
-- reply ≤ 0.25

-- ask Report enrichment ratio for MGWY
-- reply 4.8

-- ask Return enrichment ratio (reported value) for this variant: MVYP
-- reply ≤ 0.25

-- ask Provide enrichment ratio value for the following variant: NIST
-- reply ≤ 0.25

-- ask Tell me measured enrichment ratio for ADST please.
-- reply ≤ 0.25

-- ask Note down enrichment ratio recorded for AHST
-- reply ≤ 0.25

-- ask Identify measured enrichment ratio associated with YHEQ
-- reply ≤ 0.25

-- ask For the variant AGCS , report enrichment ratio.
-- reply 10.8

-- ask Quickly give me recorded enrichment ratio for QGNI
-- reply ≤ 0.25

-- ask Kindly indicate its recorded enrichment ratio. Item: AGQM
-- reply 15.8

-- ask // Input: TTTK . Output its enrichment ratio only.
-- reply 16.7

-- ask Return reported enrichment ratio. Input variant: KCAE
-- reply ≤ 0.25

-- ask Give enrichment ratio for the following variant: MGNT
-- reply ≤ 0.25

-- ask Given NPKR , respond with its enrichment ratio.
-- reply ≤ 0.25

-- ask Given YDLC , respond with its enrichment ratio.
-- reply ≤ 0.25

-- ask Report enrichment ratio, nothing else, for this variant: PARS
-- reply ≤ 0.25

-- ask Give enrichment ratio for ACAM
-- reply 30.7

-- ask Provide only the value of recorded enrichment ratio for RTPK
-- reply ≤ 0.25

-- ask Name the recorded enrichment ratio of the variant listed here: KSTK
-- reply ≤ 0.25

-- ask Please look at this variant and report its enrichment ratio: IQWT
-- reply ≤ 0.25

-- ask State, in one line, measured enrichment ratio of NGST
-- reply ≤ 0.25

-- ask Give a short answer stating reported enrichment ratio for QGCM .
-- reply 1.34

-- ask Read off the recorded enrichment ratio for LEIN
-- reply ≤ 0.25

-- ask Output enrichment ratio of QAIG
-- reply ≤ 0.25

-- ask Quote enrichment ratio reported for SDDV please.
-- reply 0.265

-- ask Name the recorded enrichment ratio of the item SGVE in your answer.
-- reply ≤ 0.25

-- ask Recall and state the measured enrichment ratio for DWAP .
-- reply ≤ 0.25

-- ask Respond only with enrichment ratio recorded for AGWL
-- reply ≤ 0.25

-- ask Look up and report measured enrichment ratio for this entry: TGST
-- reply 15.2

-- ask Return value of enrichment ratio for input AHQM , no commentary.
-- reply ≤ 0.25

-- ask Assign enrichment ratio to the following record: ACAN
-- reply 15.5

-- ask Determine from records and report enrichment ratio for VDTN
-- reply ≤ 0.25

-- ask Input ACAK , output reported enrichment ratio.
-- reply 0.412

-- ask Consider the variant MGAT . State its measured enrichment ratio.
-- reply 18.8

-- ask Report enrichment ratio, nothing else, for this variant: AVGD
-- reply ≤ 0.25

-- ask Supply recorded enrichment ratio for IMRF here.
-- reply ≤ 0.25

-- ask Identify enrichment ratio associated with the variant TTKH
-- reply ≤ 0.25

-- ask Give the reported value of enrichment ratio for this record: FYLD
-- reply ≤ 0.25

-- ask Identify measured enrichment ratio corresponding to YWCL
-- reply ≤ 0.25

-- ask State, in one line, measured enrichment ratio of AGGW
-- reply 0.253

-- ask Write down enrichment ratio measured for item YTTK
-- reply ≤ 0.25

-- ask Note down enrichment ratio recorded for HFYE
-- reply ≤ 0.25

-- ask Consider the variant DMIH and give its recorded enrichment ratio.
-- reply ≤ 0.25

-- ask Answer with the recorded enrichment ratio for the variant listed here: FVNS
-- reply ≤ 0.25

-- ask For the variant TTNH , give its reported enrichment ratio.
-- reply 12.2

-- ask Retrieve enrichment ratio measured for ATPN and print it.
-- reply ≤ 0.25

-- ask Retrieve enrichment ratio measured for AIST and print it.
-- reply 6.85

-- ask Indicate its recorded enrichment ratio; the variant in question is WEVH
-- reply ≤ 0.25

-- ask Identify measured enrichment ratio associated with YTNH
-- reply ≤ 0.25

-- ask For the variant GNLF , report enrichment ratio.
-- reply 6.83

-- ask State, in one line, measured enrichment ratio of MGAN
-- reply 12.6

-- ask Tell me enrichment ratio reported for EFFM
-- reply ≤ 0.25

-- ask Return enrichment ratio (reported value) for this variant: RVEC
-- reply ≤ 0.25

-- ask For EAHV , write its enrichment ratio.
-- reply ≤ 0.25

-- ask Please indicate enrichment ratio recorded for MGNL
-- reply ≤ 0.25

-- ask Annotate the variant GPWS with its measured enrichment ratio.
-- reply ≤ 0.25

-- ask Retrieve enrichment ratio measured for TVNY and print it.
-- reply ≤ 0.25

-- ask Give the reported enrichment ratio for this variant. ACQN
-- reply ≤ 0.25

-- ask Note enrichment ratio for the variant shown: KGKP
-- reply ≤ 0.25

-- ask Tell me measured enrichment ratio for AYFR please.
-- reply ≤ 0.25
